Would you mind telling me the reported inhibition at 1 µM of each entry?
Target: hDGAT1 (Homo sapiens)
Construct: made in house; host or cells: Sf9 insect cells (baculovirus); microsomal fraction
Sequence (O75907 1-488): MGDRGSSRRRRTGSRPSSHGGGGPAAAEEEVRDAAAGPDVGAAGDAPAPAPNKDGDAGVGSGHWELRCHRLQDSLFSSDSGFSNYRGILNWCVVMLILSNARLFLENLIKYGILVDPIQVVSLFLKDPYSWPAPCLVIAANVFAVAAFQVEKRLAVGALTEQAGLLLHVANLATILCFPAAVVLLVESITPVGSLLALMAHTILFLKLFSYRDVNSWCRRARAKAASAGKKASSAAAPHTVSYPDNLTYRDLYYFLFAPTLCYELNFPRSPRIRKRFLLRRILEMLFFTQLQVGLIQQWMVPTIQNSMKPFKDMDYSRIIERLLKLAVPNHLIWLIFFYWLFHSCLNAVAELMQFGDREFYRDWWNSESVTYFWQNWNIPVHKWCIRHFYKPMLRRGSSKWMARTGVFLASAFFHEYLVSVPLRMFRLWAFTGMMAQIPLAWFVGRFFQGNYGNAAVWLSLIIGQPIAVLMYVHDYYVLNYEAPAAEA
Test: In-vitro DGAT1 assay with hDGAT1 microsomes from Sf9 cells (14C oleoyl CoA, scintillation counting)
Format: biochemical
Conditions: read-out: Percentage inhibition of hDGAT1

### Prompt Dear colleague, please send me the reported inhibition at 1 µM for O=C(O)CN1CCC(c2ncc(-c3ccc(NC(=O)Nc4cc(F)c(F)cc4F)cc3)s2)CC1 when you can.
### Response > 50%

### Prompt Dear colleague, please send me the reported inhibition at 1 µM for CC(C)(N)C1CCC(c2ncc(-c3ccc(NC(=O)Nc4ccc(F)cc4F)cc3)s2)CC1 (stereo not shown) when you can.
### Response > 50%

### Prompt Dear colleague, please send me the reported inhibition at 1 µM for COc1ccc(S(=O)(=O)Nc2ccc(-c3cnc(CCCC(=O)O)s3)cc2)c(OC)c1 when you can.
### Response 20 to 50%

### Prompt Dear colleague, please send me the reported inhibition at 1 µM for CC(C)(O)CC1CCC(c2ncc(-c3ccc(NC(=O)Nc4cc(F)cc(F)c4)cc3)s2)CC1 (stereo not shown) when you can.
### Response > 50%

* * *

molecular target: hDGAT1 (Homo sapiens, UniProt O75907); construct: made in house; host or cells: Sf9 insect cells (baculovirus); microsomal fraction; assay: In-vitro DGAT1 assay with hDGAT1 microsomes from Sf9 cells (14C oleoyl CoA, scintillation counting); assay type: biochemical; settings: at 1 μM
observation-type: Percentage inhibition of hDGAT1

Example entries begin here.
- O=C(Nc1ccc(-c2noc([C@H]3CC[C@H](C(=O)O)CC3)n2)cc1)c1ccc(OC(F)(F)F)cc1: + (20-50% Inhibition)
- O=C(Nc1ccc(-c2noc([C@H]3CC[C@H](C(=O)O)CC3)n2)cc1)Nc1ccccc1Cl: + (20-50% Inhibition)
- CC(C)(O)CC1CCC(c2ncc(-c3ccc(NC(=O)Nc4cc(F)c(F)cc4F)cc3)s2)CC1 (stereo not shown): ++ (>50 % Inhibition)
- O=C(O)CCCc1nnc(-c2ccc(NC(=O)c3ccc(-c4ccccc4)cc3)cc2)s1: + (20-50% Inhibition)
- CC(C)(CCc1ncc(-c2ccc(NC(=O)Nc3cc(F)c(F)c(F)c3)cc2)s1)C(=O)[O-].[Na+] [Example 255A]: ++ (>50 % Inhibition)

### Prompt Dear colleague, please send me the reported Percentage inhibition of hDGAT1 for O=C(Nc1ccc(-c2noc([C@H]3CC[C@H](C(=O)O)CC3)n2)cc1)Nc1ccc(F)cc1F when you can.
### Response + (20-50% Inhibition)

### Prompt Dear colleague, please send me the reported Percentage inhibition of hDGAT1 for CC(C)(CC(=O)O)Cc1ncc(-c2ccc(NC(=O)c3ccc(-c4ccccc4)cc3)cc2)s1 when you can.
### Response ++ (>50 % Inhibition)
